Tested on: EMT-6 mammary tumors
Assay: Biodistribution in EMT-6 BALB/C mice
Format: in vivo
Details: 5 min
readout: ratio Tumor:heart
The reply should be a number, written without any unit.

COc1cc2c(cc1OC)CN(CCCCNC(=O)c1cc(C)cc(OC)c1O[11CH3])CC2 [[^11C]10]	0.71
COc1cc2c(cc1OC)CN(CCNC(=O)c1cc([125I])ccc1OC)CC2 [[^125I]8i]	1.04
COc1cc2c(cc1OC)CN(CCCCNC(=O)c1cc([76Br])cc(OC)c1OC)CC2 [[^76Br]6]	0.65
COc1cc2c(cc1OC)CN(CCCCNC(=O)c1cc(Br)cc(OC)c1O[11CH3])CC2 [[^11C]6]	0.80

Let us move to another entry and its ratio Tumor:heart.
Any idea what ratio Tumor:heart was measured for COc1cc2c(cc1OC)CN(CCCCNC(=O)c1cc([125I])cc(OC)c1OC)CC2 [[^125I]6i] ?
0.61

----------
Test system: EMT-6 mammary tumors
Test: Biodistribution in EMT-6 BALB/C mice
Assay type: in vivo
Details: liver, 5 min
readout: % ID per gram liver (% ID per gram)
Give a bare numeral; the unit % ID per gram is implied.

Look over these answered cases.
COc1cc2c(cc1OC)CN(CCCCNC(=O)c1cc(C)cc(OC)c1O[11CH3])CC2 [[^11C]10]	12.32
COc1cc2c(cc1OC)CN(CCNC(=O)c1cc(C)ccc1O[11CH3])CC2 [[^11C]9]	18.49
COc1cc2c(cc1OC)CN(CCCCNC(=O)c1cc([125I])cc(OC)c1OC)CC2 [[^125I]6i]	13.20
COc1cc2c(cc1OC)CN(CCCCNC(=O)c1cc(Br)cc(OC)c1O[11CH3])CC2 [[^11C]6]	25.02
COc1cc2c(cc1OC)CN(CCCCNC(=O)c1cc([76Br])cc(OC)c1OC)CC2 [[^76Br]6]	10.99

Let us move to another entry and its % ID per gram liver.
Any idea what % ID per gram liver was measured for COc1cc2c(cc1OC)CN(CCNC(=O)c1cc([125I])ccc1OC)CC2 [[^125I]8i] ?
41.37

----------
Tested on: EMT-6 mammary tumors
Assay: Biodistribution in EMT-6 BALB/C mice
Type: in vivo
Conditions: kidney, 5 min
readout: % ID per gram kidney (% ID per gram)
Give a bare numeral; the unit % ID per gram is implied.

COc1cc2c(cc1OC)CN(CCCCNC(=O)c1cc(C)cc(OC)c1O[11CH3])CC2 [[^11C]10]	20.50
COc1cc2c(cc1OC)CN(CCCCNC(=O)c1cc([76Br])cc(OC)c1OC)CC2 [[^76Br]6]	31.20
COc1cc2c(cc1OC)CN(CCNC(=O)c1cc(C)ccc1O[11CH3])CC2 [[^11C]9]	44.07
COc1cc2c(cc1OC)CN(CCNC(=O)c1cc([125I])ccc1OC)CC2 [[^125I]8i]	54.77
COc1cc2c(cc1OC)CN(CCCCNC(=O)c1cc(Br)cc(OC)c1O[11CH3])CC2 [[^11C]6]	19.48

Let us move to another entry and its % ID per gram kidney.
Form: Entry = COc1cc2c(cc1OC)CN(CCCCNC(=O)c1cc([125I])cc(OC)c1OC)CC2 [[^125I]6i] | System = EMT-6 mammary tumors | % ID per gram kidney = ____
29.51
